System: Pseudomonas aeruginosa
assay-explanation: Antibacterial activity against Pseudomonas aeruginosa MTCC 2642 after 24 hrs by serial dilution method
Format: functional
run-parameters: MTCC 2642, 24 h
value-type: MIC (µg/mL)

COc1cc(/C=C/C(=O)/C=C/C2=C(C)CCCC2(C)C)cc(OC)c1OC = 22.5
COc1ccccc1/C=C/C=C/C(=O)/C=C/C1=C(C)CCCC1(C)C = 32.5
CC1=C(/C=C/C(=O)/C=C/c2ccc(Cl)cc2)C(C)(C)CCC1 = 12.5

* * *

Test system: Aspergillus niger
assay-explanation: Antifungal activity against Aspergillus niger MTCC 1344 after 24 hrs by serial dilution method
Format: functional
run-parameters: MTCC 1344, 24 h
value-type: MIC (µg/mL)

CC1=C(/C=C/C(=O)/C=C/c2ccccc2F)C(C)(C)CCC1 = 9.9
CC1=C(/C=C/C(=O)/C=C/c2ccc([N+](=O)[O-])cc2)C(C)(C)CCC1 = 9.6
CC1=C(/C=C/C(=O)/C=C/C=C/c2ccccc2)C(C)(C)CCC1 = 25
CC1=C(/C=C/C(=O)/C=C/c2cccc3ccccc23)C(C)(C)CCC1 = 55
COc1ccccc1/C=C/C=C/C(=O)/C=C/C1=C(C)CCCC1(C)C = 80
CC1=C(/C=C/C(=O)/C=C/c2cccnc2)C(C)(C)CCC1 = 3.9
CC1=C(/C=C/C(=O)/C=C/c2ccccc2Br)C(C)(C)CCC1 = 7.6
CC1=C(/C=C/C(=O)/C=C/c2ccccc2Cl)C(C)(C)CCC1 = 33.5

* * *

Tested on: Aspergillus niger
assay-explanation: Antifungal activity against Aspergillus niger MTCC 1344 after 24 hrs by serial dilution method
Assay type: functional
run-parameters: MTCC 1344, 24 h
value-type: MIC (µg/mL)

CC1=C(/C=C/C(=O)/C=C/c2ccccc2[N+](=O)[O-])C(C)(C)CCC1 = 32.4
CC1=C(/C=C/C(=O)/C=C/c2ccc(C#N)cc2)C(C)(C)CCC1 = 52.4

* * *

Tested on: Pseudomonas aeruginosa
assay-explanation: Antibacterial activity against Pseudomonas aeruginosa MTCC 2642 after 24 hrs by serial dilution method
Format: functional
run-parameters: MTCC 2642, 24 h
Field 'label' (enum: 1 / 0). Set to 1 when MIC is strictly under 10 µg/mL; else 0.

CC1=C(/C=C/C(=O)/C=C/c2cccnc2)C(C)(C)CCC1 = 0
CC1=C(/C=C/C(=O)/C=C/c2ccccc2Cl)C(C)(C)CCC1 = 0
CC1=C(/C=C/C(=O)/C=C/c2ccccc2)C(C)(C)CCC1 = 0
CC1=C(/C=C/C(=O)/C=C/c2ccc(Br)cc2)C(C)(C)CCC1 = 0
CC1=C(/C=C/C(=O)/C=C/c2ccc([N+](=O)[O-])cc2)C(C)(C)CCC1 = 0
CC1(C)S[C@@H]2[C@H](NC(=O)[C@H](N)c3ccc(O)cc3)C(=O)N2[C@H]1C(=O)O = 1
CC1=C(/C=C/C(=O)/C=C/C=C/c2ccccc2)C(C)(C)CCC1 = 0
COc1ccc(/C=C/C(=O)/C=C/C2=C(C)CCCC2(C)C)cc1OC = 0
CC1=C(/C=C/C(=O)/C=C/c2ccc(C)cc2)C(C)(C)CCC1 = 0
CC1=C(/C=C/C(=O)/C=C/c2ccccc2[N+](=O)[O-])C(C)(C)CCC1 = 1
O=C(O)c1cn(C2CC2)c2cc(N3CCNCC3)c(F)cc2c1=O = 1
